Below: a set of entries, each annotated with reported z-score.
ASSAY: PSAC antagonists in infected red cells, primary screen, cell-based, P. falciparum Indochina, OD700, 2 h (AID 1155);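 further: lysis reports solute entry through the parasite surface anion channel PSAC; channel blockers reduce lysis of infected cells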
RUN CONDITIONS: P. falciparum Indochina infected erythrocytes, osmotic lysis OD700; higher = more signal, called active from +8 up or from −8 down
Active and inactive are the calls of the source.
PROPERTY MEASURED: z-score

MOLECULE	PROPERTY MEASURED	DATA VALUE
C[C@@H]1CC[C@@H](C(=O)O)N[C@H]1c1ccc(-c2ccco2)cc1	z-score	1.2 (inactive)
CCOC(=O)[C@H](Cc1ccccc1)NC(=O)CCC1CC(OC(=O)NCc2cccc3ccccc23)CC2(CCCC(COC(=O)NCCCN3CCCC3=O)O2)O1 (some centres not stated)	z-score	-0.874 (inactive)
CC(C)CON=C1C[C@@H](O)[C@@H](O)[C@@H]2[C@@H]3C(=O)N(c4cccc(Oc5ccccc5)c4)C(=O)[C@@H]3CC[C@H]12	z-score	0.0644 (inactive)
C[C@@H](ON=C1[C@H]2CCn3c(=O)n(-c4ccccc4)c(=O)n3[C@H]2[C@H](O)[C@@H]2O[C@H]12)c1cn([C@H](CO)Cc2ccccc2)nn1	z-score	0.461 (inactive)
CO[C@H]1COC(=O)CC=C[C@@H](C)COC(=O)[C@@H](OCc2ccccc2)C=C[C@@H]1C	z-score	-0.104 (inactive)
CCOC(=O)NN=C1C[C@@H](O)[C@@H](O)[C@@H]2[C@@H]3C(=O)N(Cc4ccccc4)C(=O)[C@@H]3CC[C@@H]12	z-score	0.628 (inactive)
CO[C@H]1COC(=O)[C@H](C)NC(=O)CC=C[C@@H](C)[C@H](OC)COC(=O)CC=C[C@@H]1C	z-score	0.147 (inactive)

Source of measurements: PubChem BioAssay
